- system name: RNF31 PUB domain (Homo sapiens)
- Construct: MBP-TEV (N, cleaved yes); made in house; host or cells: E. coli BL21 (DE3) pLysS
- Sequence (Q96EP0 1-179): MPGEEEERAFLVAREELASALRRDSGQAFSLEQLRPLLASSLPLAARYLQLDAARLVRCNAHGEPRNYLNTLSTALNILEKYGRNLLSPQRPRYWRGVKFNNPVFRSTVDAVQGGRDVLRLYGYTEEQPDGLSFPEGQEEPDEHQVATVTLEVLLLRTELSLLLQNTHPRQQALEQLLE
- protocol description: Phage Library Screening with NGS, RNF31 PUB domain
- Format: binding
- measurement context: RNF31 PUB domain clusters C41-C45; target concentration 30
What Phage library screen NGS readout, Target Concentration 30 was measured for each of the following?

// batch mode: one Phage library screen NGS readout, Target Concentration 30 value per listed entry
1. DPAFHDCQFAAAVCSTY
2. DPAYDWCLYAAEYCHTD
3. DPAWEWCLYAAAECIED
4. DPATWWCLYAAEDCVNI
5. DPAYWDCLYAAWSCDIL
6. DPAHANCQLAADVCSTY
7. DPAFWECMYAASDCDAS

[0, 0, 0, 1, 1, 0, 0]

---

What phage screen counts, Target Concentration 10 was measured for each of the following?
- system name: CDK2 (Homo sapiens)
- protocol description: Phage Library Screening with NGS, CDK2
- Type: binding
- Design: Full length CDK2 (residues 1-298) with an N-terminal GST-3C-6×his-TEV tag; GST-3C-6×his-TEV (N, cleaved yes); made in house; host or cells: Sf9 (Bac-to-Bac baculovirus)
- measurement context: CDK2, target concentration 10
Numbered stars: 1 amine (or outer) side, 2 acyl side, 3 side chain; on linkers, the order of the positions; unused ones are H or OH. Bridge positions count the residues as written; N and C are the ends. Ends that are not written are not given here. Phenylene(1,4-NHCOCH2)2 = O=C(C[*:1])Nc1ccc(NC(=O)C[*:2])cc1
Answers are plain numbers.

Completed entries (count: 3):
{"residue codes": "PCMDAFFSCVW (linker 2-9 via Phenylene(1,4-NHCOCH2)2 (inferred))", "measurement": 0}
{"residue codes": "PECLVAFFSCV (linker 3-10 via Phenylene(1,4-NHCOCH2)2 (inferred))", "measurement": 0}
{"residue codes": "DPAWWVCAIAAMDCHEQ (linker 7-14 via Phenylene(1,4-NHCOCH2)2 (inferred))", "measurement": 0}

From here, focus on the item given below.
State the recorded phage screen counts, Target Concentration 10 for this entry: CLSAFFSCTY (linker 1-8 via Phenylene(1,4-NHCOCH2)2 (inferred); not fully specified (C-terminus)) 29

---

- system name: CHIP (Homo sapiens)
- Construct: N-term truncated CHIP (also known as STUB1, Uniprot ID: Q9UNE7, residues 23-303); made in house; host or cells: E. coli BL21 CodonPlus
- Sequence (Q9UNE7 23-303): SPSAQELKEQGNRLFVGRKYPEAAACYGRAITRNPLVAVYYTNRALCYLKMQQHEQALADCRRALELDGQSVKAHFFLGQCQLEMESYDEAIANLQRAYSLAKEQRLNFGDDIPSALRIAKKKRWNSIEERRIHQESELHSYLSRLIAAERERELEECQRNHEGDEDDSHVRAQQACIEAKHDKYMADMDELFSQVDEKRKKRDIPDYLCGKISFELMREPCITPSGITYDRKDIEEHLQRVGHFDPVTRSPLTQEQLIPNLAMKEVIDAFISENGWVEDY
- protocol description: Naive Library Presenter Screening (phage, NGS), CHIP
- Format: binding
- measurement context: CHIP target concentration 100 nM
Numbered stars: 1 amine (or outer) side, 2 acyl side, 3 side chain; on linkers, the order of the positions; unused ones are H or OH. Bridge positions count the residues as written; N and C are the ends. Ends that are not written are not given here. Phenylene(1,4-NHCOCH2)2 = O=C(C[*:1])Nc1ccc(NC(=O)C[*:2])cc1
Satisfied if interaction data at Target Concentration 100 is below 10. Not satisfied if not; exact matches included in Not satisfied.

As a guide, the following entries are already answered.
{"residue codes": "PCWNAWLYCSN (linker 2-9 via Phenylene(1,4-NHCOCH2)2 (inferred))", "discrete label": "Not satisfied"}
{"residue codes": "ICYNAWLECA (linker 2-9 via Phenylene(1,4-NHCOCH2)2 (inferred))", "discrete label": "Satisfied"}
{"residue codes": "PCYSAWIVCSD (linker 2-9 via Phenylene(1,4-NHCOCH2)2 (inferred))", "discrete label": "Not satisfied"}
{"residue codes": "ICYNAWFECE (linker 2-9 via Phenylene(1,4-NHCOCH2)2 (inferred))", "discrete label": "Satisfied"}
{"residue codes": "ICYNARLECE (linker 2-9 via Phenylene(1,4-NHCOCH2)2 (inferred))", "discrete label": "Not satisfied"}
{"residue codes": "PCWEAWLWCSM (linker 2-9 via Phenylene(1,4-NHCOCH2)2 (inferred))", "discrete label": "Satisfied"}

Now turn to the next sequence.
Item ICWAAWVSCS (linker 2-9 via Phenylene(1,4-NHCOCH2)2 (inferred)) : interaction data at Target Concentration 100 beneath 10, strictly? Satisfied

---

- system name: CHIP (Homo sapiens, UniProt Q9UNE7)
- Construct: N-term truncated CHIP (also known as STUB1, Uniprot ID: Q9UNE7, residues 23-303); made in house; host or cells: E. coli BL21 CodonPlus
- Sequence (Q9UNE7 23-303): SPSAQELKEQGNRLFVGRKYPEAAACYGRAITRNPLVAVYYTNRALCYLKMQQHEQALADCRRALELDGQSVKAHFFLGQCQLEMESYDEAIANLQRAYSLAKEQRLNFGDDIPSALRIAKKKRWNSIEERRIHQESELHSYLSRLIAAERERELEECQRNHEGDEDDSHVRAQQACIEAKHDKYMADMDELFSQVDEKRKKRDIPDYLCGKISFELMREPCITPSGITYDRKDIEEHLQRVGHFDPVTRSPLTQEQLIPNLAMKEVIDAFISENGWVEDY
- protocol description: Naive Library Presenter Screening (phage, NGS), CHIP
- Format: binding
- measurement context: CHIP clusters (C83, C84); target concentration 1000 nM, second column
Numbered stars: 1 amine (or outer) side, 2 acyl side, 3 side chain; on linkers, the order of the positions; unused ones are H or OH. Bridge positions count the residues as written; N and C are the ends. Ends that are not written are not given here. Phenylene(1,4-NHCOCH2)2 = O=C(C[*:1])Nc1ccc(NC(=O)C[*:2])cc1
Y if interaction data at Target Concentration 1000 is below 40. N if not; exact matches included in N.

As a guide, the following entries are already answered.
{"residue codes": "DPAQDNCHYAAHICMVD (DPAQDNCHYAAHICMVD-NH2; linker 7-14 via Phenylene(1,4-NHCOCH2)2 (inferred))", "system name": "CHIP (Homo sapiens, UniProt Q9UNE7)", "discrete label": "N"}
{"residue codes": "DPAFWQCQFAAATCAHY (linker 7-14 via Phenylene(1,4-NHCOCH2)2 (inferred))", "system name": "CHIP (Homo sapiens, UniProt Q9UNE7)", "discrete label": "N"}
{"residue codes": "DPAFEVCQFAAATCSSN (linker 7-14 via Phenylene(1,4-NHCOCH2)2 (inferred))", "system name": "CHIP (Homo sapiens, UniProt Q9UNE7)", "discrete label": "Y"}
{"residue codes": "DPAFWSCQFAAATCSHL (linker 7-14 via Phenylene(1,4-NHCOCH2)2 (inferred))", "system name": "CHIP (Homo sapiens, UniProt Q9UNE7)", "discrete label": "Y"}
{"residue codes": "DPAYDVCHFAAHICWID (linker 7-14 via Phenylene(1,4-NHCOCH2)2 (inferred))", "system name": "CHIP (Homo sapiens, UniProt Q9UNE7)", "discrete label": "N"}

Now turn to the next sequence.
Item DPAFWVCQYAAAMCQDV (linker 7-14 via Phenylene(1,4-NHCOCH2)2 (inferred)) : interaction data at Target Concentration 1000 beneath 40, strictly? N

---

- system name: RNF31 UBA domain (Homo sapiens)
- Construct: RNF31 UBA domain protein (residues 480-639) with N-terminal Thioredoxin-TEV-6×his-yBBr-3C tags; Thioredoxin (N, cleaved yes); made in house; host or cells: E. coli BL21 (DE3) pLysS
- Sequence (Q96EP0 480-639): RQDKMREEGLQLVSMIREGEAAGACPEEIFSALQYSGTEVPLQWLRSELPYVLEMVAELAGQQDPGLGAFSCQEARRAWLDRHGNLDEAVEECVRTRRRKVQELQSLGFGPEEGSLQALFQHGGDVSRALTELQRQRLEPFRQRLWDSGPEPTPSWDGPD
- protocol description: Phage Library Screening with NGS, RNF31 UBA domain
- Format: binding
- measurement context: Target Concentration 10; no competitor
assay metric: phage screen NGS read-out at Target Concentration 10
Give bare numbers.

// batch mode: one phage screen NGS read-out at Target Concentration 10 value per listed entry
1. DPAREHCDSAAIFCYIL
2. DPASIICMLAADNCLYE
3. DPAFSLCVYAALFCEQQ
4. DPAFSTCVYAAIICNDT
5. DPARWVCELAAQNCLYR
6. DPAEWICRMAAMNCLYQ (Ac-DPAEWICRMAAMNCLYQ-NH2; not fully specified (bridges); cysteine pairing not given here)

0
0
0
0
0
0

// batch mode: one phage screen NGS read-out at Target Concentration 10 value per listed entry
1. DPAFSRCVYAAFTCQTF
2. DPAHILCEMAARNCLYN
3. DPAFSQCVYAAVVCEVQ
4. DPAITHCTAAAMWCHLL
5. DPADLLCHMAAQNCLYR
6. DPAFSTCVYAAVFCQNT
7. DPADYICYLAANNCLYH
8. DPALSQCVYAAVFCQNL

1: 0; 2: 3; 3: 2; 4: 1; 5: 1; 6: 0; 7: 3; 8: 0

State the recorded phage screen NGS read-out at Target Concentration 10 for this entry: DPASIHCAAAALWCDIL 0
